Quick reference for IC50 among some compounds
# System: intraerythrocytic P. falciparum
# Test: In vitro parasite proliferation assay (SYBR Safe-based fluorescence)
# Format: cell-based, Plasmodium falciparum (3D7 strain)
# Condition Notes: Plasmodium falciparum; intraerythrocytic stage, RPMI-1640 containing 100 µM pantothenate, 96 h; read-out: IC50 (µM) against Pf at 100 µM Pan
Property Name: IC50

In [3]: df
Out[3]:
                               entry_smiles  property_name  readout_value
0    CCCCCc1csc(CNC(=O)[C@H](O)C(C)(C)CO)n1           IC50        > 25 µM
1  CC(C)(CO)[C@@H](O)C(=O)NCc1cnc(-c2ccccc2)s1           IC50        > 50 µM
2  CC(C)(CO)[C@@H](O)C(=O)NCc1nc(CCc2ccccc2)cs1           IC50      > 12.5 µM
3     CCCCc1csc(CNC(=O)[C@H](O)C(C)(C)CO)n1           IC50      > 6.25 µM
4  CC(C)(CO)[C@@H](O)C(=O)NCc1csc(Cc2ccccc2)n1           IC50        > 25 µM
5  CC(C)(CO)[C@@H](O)C(=O)NCc1csc(-c2ccccc2)n1           IC50      > 6.25 µM

====

# Measured On: PfPanK (Plasmodium falciparum, UniProt Q8IL92+Q8ILP4)
# Sequence (Q8ILP4 entry or part of it): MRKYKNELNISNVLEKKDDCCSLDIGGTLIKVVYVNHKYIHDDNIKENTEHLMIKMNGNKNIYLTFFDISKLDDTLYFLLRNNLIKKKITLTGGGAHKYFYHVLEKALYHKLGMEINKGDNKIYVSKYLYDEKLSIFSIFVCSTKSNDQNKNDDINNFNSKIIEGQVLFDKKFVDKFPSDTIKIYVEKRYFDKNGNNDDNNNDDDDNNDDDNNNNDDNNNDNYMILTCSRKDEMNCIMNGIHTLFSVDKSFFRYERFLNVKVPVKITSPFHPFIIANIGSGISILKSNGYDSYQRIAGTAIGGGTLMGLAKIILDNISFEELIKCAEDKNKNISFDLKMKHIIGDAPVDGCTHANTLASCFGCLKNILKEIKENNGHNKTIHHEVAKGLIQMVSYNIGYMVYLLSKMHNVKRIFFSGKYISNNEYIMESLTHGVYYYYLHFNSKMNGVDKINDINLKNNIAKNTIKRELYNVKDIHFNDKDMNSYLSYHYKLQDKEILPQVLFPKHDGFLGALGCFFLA
# Sequence (Q8IL92 entry or part of it): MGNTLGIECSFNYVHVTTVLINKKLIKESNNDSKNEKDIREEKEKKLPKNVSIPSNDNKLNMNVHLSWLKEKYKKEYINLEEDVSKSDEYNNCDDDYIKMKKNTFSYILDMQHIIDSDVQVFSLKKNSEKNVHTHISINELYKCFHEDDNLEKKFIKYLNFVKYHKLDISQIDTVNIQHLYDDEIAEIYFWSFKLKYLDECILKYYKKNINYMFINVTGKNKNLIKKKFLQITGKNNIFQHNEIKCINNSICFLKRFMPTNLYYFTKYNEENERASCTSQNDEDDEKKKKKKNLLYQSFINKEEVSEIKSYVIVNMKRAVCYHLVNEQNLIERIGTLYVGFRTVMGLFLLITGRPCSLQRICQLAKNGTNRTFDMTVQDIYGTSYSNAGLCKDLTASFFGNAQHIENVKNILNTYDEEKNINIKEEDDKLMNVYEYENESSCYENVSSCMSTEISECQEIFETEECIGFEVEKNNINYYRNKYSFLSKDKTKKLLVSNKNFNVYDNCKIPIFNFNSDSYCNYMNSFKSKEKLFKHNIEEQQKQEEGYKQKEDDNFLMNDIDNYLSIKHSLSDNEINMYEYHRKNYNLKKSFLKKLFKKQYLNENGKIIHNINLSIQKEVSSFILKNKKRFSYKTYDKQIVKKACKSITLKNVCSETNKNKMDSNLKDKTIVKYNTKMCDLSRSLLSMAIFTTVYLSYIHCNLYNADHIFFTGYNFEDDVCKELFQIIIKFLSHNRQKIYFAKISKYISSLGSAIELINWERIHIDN
# Test: [14C]pantothenate phosphorylation assay in P. falciparum lysates (Somogyi reagent)
# Type: biochemical
# Condition Notes: read-out: Inhibition of pantothenate phosphorylation
Property Name: inhibition at 2 µM

>>> print(df.to_string())
                               entry_smiles       property_name  readout_value
0    CCCCCc1csc(CNC(=O)[C@H](O)C(C)(C)CO)n1  inhibition at 2 µM          > 90%
1  CC(C)(CO)[C@@H](O)C(=O)NCc1nc(CCc2ccccc2)cs1  inhibition at 2 µM          > 90%
2  CC(C)(CO)[C@@H](O)C(=O)NCc1csc(-c2ccccc2)n1  inhibition at 2 µM           ~80%
3  CC(C)(CO)[C@@H](O)C(=O)NCc1csc(Cc2ccccc2)n1  inhibition at 2 µM          > 90%
4  CC(C)(CO)[C@@H](O)C(=O)NCc1cnc(-c2ccccc2)s1  inhibition at 2 µM          > 90%
5     CCCCc1csc(CNC(=O)[C@H](O)C(C)(C)CO)n1  inhibition at 2 µM          > 90%

====

# Measured On: HsPanK3 (Homo sapiens)
# Sequence (Q9H999 12-368): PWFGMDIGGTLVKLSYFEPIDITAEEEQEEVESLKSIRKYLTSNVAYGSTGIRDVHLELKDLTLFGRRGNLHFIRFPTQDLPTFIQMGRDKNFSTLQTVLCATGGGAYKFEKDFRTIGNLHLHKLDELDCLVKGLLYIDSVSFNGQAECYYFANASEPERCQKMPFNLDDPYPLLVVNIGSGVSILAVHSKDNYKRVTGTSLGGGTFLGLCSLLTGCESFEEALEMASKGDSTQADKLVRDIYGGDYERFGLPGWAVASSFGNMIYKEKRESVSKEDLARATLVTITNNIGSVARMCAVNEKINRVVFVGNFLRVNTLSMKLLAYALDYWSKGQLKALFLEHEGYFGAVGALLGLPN
# Test: HsPanK kinetic assay (pyruvate kinase/lactic dehydrogenase coupled, NADH at 340 nm)
# Assay type: biochemical
# Set-up: catalytic core domain of human PanK3 (amino acid residues 12–368); made in house; host or cells: E. coli BL21(DE3)
# Procedure: The gene encoding the catalytic core domain of human PanK3 (amino acid residues 12–368) was synthesized and cloned into the pET28a(+) expression vector using the NdeI and BamHI restriction sites to produce an N-terminal His6-tagged protein (Bio Basic Inc.). […] The clarified supernatant was incubated with Ni-NTA resin (Cytiva) pre-equilibrated with lysis buffer containing 5 mM imidazole at 4°C. […] Protein purity was assessed using SDS-PAGE and deemed >50% (Fig. S4). […]
Property Name: kcat of HsPanK3 compared with that of pantothenate, in words

>>> df
                               entry_smiles  readout_value
0  CC(C)(CO)[C@@H](O)C(=O)NCc1csc(-c2ccccc2)n1        same as
1     CCCCc1csc(CNC(=O)[C@H](O)C(C)(C)CO)n1        same as
2  CC(C)(CO)[C@@H](O)C(=O)NCc1csc(Cc2ccccc2)n1        same as
3    CCCCCc1csc(CNC(=O)[C@H](O)C(C)(C)CO)n1        same as
